system: NCI-H460 lung; test: NCI-60 one-dose screen, 48 h (100 = growth as untreated, 0 = no growth, -100 = all killed); details: 10 µM unless noted
This is part of a sample that, as a whole, favours compounds with a hit. Of some 83,000 tested, about 20% had one in any assay.
Readings of growth for the listed compounds
Kindly provide the numeric value in % only, without the unit symbol.

Worked examples, 2 compounds total:
[[record]]
substance_smiles = "C=CCn1c(SCC(=O)Nc2cccc(C(=O)/C=C/c3ccccc3)c2)nc2ccccc2c1=O"
observed_value = 91.8

[[record]]
substance_smiles = "CCOC(=O)c1c(NCC(=O)Nc2cccc(Cl)c2)sc2c1CCCC2"
observed_value = 92.5


Enquiry: So what does the record say about growth for `COc1cc(/C=C/C(=O)c2ccc(NC(=O)CSc3nnc(-c4ccc5nc(-c6ccccc6)[nH]c5c4)o3)cc2)cc(OC)c1OC` ?
Return: 92.5
